Test system: IL-2 promoter luciferase reporter in stimulated Jurkat T cells
Protocol Summary: IL-2 reporter gene assay (transfected Jurkat cells)
Assay type: cell-based
Condition Description: transfected Jurkat cells, same population of Jurkat T cells; read-out: IC50
Assay Metric: pIC50
Answer as the number alone; pIC50 is minus log10 of concentration in mol/L.

Problem: Could you share which pIC50 value was measured for CC(/C=C/C(C)=C/[C@@H]1Cc2nc(cs2)CCCCC(=O)O[C@@H](C)C/C(C)=C/C=C\C(=O)O1)=C\CN(C)C ?
Solution: 9.09

----------
System: protein synthesis in HeLa S3 cells
Protocol Summary: metabolic labelling, protein synthesis ([35S]-methionine/cysteine)
Type: cell-based
Condition Description: 1 h treatment; read-out: IC50, inhibition of protein synthesis
Assay Metric: IC50 (nM)
Respond with the bare value in nM.

Problem: Field request: IC50 | item: CC(/C=C/C(C)=C/[C@@H]1Cc2nc(cs2)[C@@H](C)C[C@@H](N)CC(=O)O[C@@H](C)C/C(C)=C/C=C\C(=O)O1)=C\CN(C)C
Solution: 3.3

----------
System: cap-dependent translation
Protocol Summary: in vitro translation in RRL, bicistronic reporter, cap-dependent cistron
Type: biochemical, rabbit
Condition Description: EMCV IRES bicistronic reporter, read-out: IC50, cap-dependent initiation
pIC50: −log10 of the molar value.
Assay Metric: pIC50

Problem: Fill blank: measured pIC50 of the compound CC(/C=C/C(C)=C/[C@@H]1Cc2nc(cs2)[C@@H](C)C[C@@H](N)CC(=O)O[C@@H](C)C/C(C)=C/C=C\C(=O)O1)=C\CN(C)C [Pat A (1), Pateamine A] is ____.
Solution: ~7.06

----------
Tested on: IL-2 promoter luciferase reporter in stimulated Jurkat T cells
Protocol Summary: IL-2 reporter gene assay (transfected Jurkat cells)
Type: cell-based
Condition Description: stimulated Jurkat T cells; listed as DMDA PatA 3; read-out: IC50, inhibition of IL-2 production / IL-2 reporter gene
Assay Metric: IC50 (nM)
// note: answer is a bare numeric in nM

Problem: Bench note: what IC50 did CC(/C=C/C(C)=C/[C@@H]1Cc2nc(cs2)CCCCC(=O)O[C@@H](C)C/C(C)=C/C=C\C(=O)O1)=C\CN(C)C [compound 3, desmethyl, desamino-pateamine A] show?
Solution: 0.8

----------
Test system: EMCV IRES mediated initiation
Protocol Summary: in vitro translation in RRL, EMCV IRES cistron
Assay type: biochemical, rabbit
Condition Description: EMCV IRES bicistronic reporter
Assay Metric: IC50

Problem: Field: IC50 (EMCV IRES mediated initiation). Entry: CC(/C=C/C(C)=C/[C@@H]1Cc2nc(cs2)[C@@H](C)C[C@@H](N)CC(=O)O[C@@H](C)C/C(C)=C/C=C\C(=O)O1)=C\CN(C)C
Solution: ~54 nM
